Data credit: patent US8785468B2

Biological target: human receptor found in pancreatic islet cells (Homo sapiens)
Sequence (Q7Z601 1-462): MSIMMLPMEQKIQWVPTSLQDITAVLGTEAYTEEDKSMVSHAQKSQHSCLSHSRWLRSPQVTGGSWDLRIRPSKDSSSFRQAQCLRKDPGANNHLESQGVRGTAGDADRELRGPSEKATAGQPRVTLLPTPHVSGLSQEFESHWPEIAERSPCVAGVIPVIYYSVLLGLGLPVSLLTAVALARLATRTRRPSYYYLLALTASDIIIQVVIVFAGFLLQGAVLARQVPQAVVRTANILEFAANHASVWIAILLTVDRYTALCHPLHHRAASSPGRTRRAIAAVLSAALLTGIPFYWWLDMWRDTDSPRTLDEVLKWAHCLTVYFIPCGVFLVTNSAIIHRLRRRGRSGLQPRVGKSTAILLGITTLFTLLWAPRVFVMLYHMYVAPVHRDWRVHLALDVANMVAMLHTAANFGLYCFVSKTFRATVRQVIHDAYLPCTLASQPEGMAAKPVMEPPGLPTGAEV
Test: Activation of intracellular IP3 signaling in transfected cells (Activation Assay)
Conditions: calculated from IP3 concentration measurements in cells transfected with the human receptor
Counter-ions that a name gives are not always drawn.
reported-property: EC50

Known results for compounds:
Lookup: Query for human receptor found in pancreatic islet cells (Homo sapiens): what EC50 does the record show for Cc1cc(-c2cc(NC(=O)[C@H](Cc3ccc(F)cc3)NCc3cscn3)[nH]n2)ccn1 [Example 21.1, dihydrochloride] ?
Found: < 50 nM

Lookup: GET /values?readout=EC50&system=human receptor found in pancreatic islet cells (Homo sapiens)&item= CNc1cc(-c2cc(NC(=O)[C@H](Cc3ccc(F)cc3)NCc3ccn(C)n3)n(C)n2)ccn1 [Example 23.4]
Found: 50 to 100 nM

Lookup: API: value(readout= EC50, system= human receptor found in pancreatic islet cells (Homo sapiens), query= O=C(O)c1cc(NC(=O)[C@H](Cc2ccccc2)NCc2nccs2)cc(-c2ccncc2)c1 [Example 45.3] )
Found: 100 to 1000 nM

Lookup: Any idea what EC50 came out for CN(C)CCNC(=O)c1cc(NC(=O)[C@H](Cc2ccccc2)NCc2cscn2)cc(-c2ccncc2)c1 [Example 74, bis trifluoroacetate salt] on human receptor found in pancreatic islet cells (Homo sapiens)?
Found: 100 to 1000 nM

Others:
Lookup: Param readout= EC50; system= human receptor found in pancreatic islet cells (Homo sapiens); entry= O=C(NCC1CC1)c1cc(NC(=O)[C@H](Cc2ccccc2)NCc2cscn2)cc(-c2ccncc2)c1 [Example 70] ; returns value.
Found: 50 to 100 nM

Lookup: # returns recorded EC50 (system: human receptor found in pancreatic islet cells (Homo sapiens)) for CC(C)N[C@@H](Cc1ccccc1)C(=O)Nc1cccc(-c2ccncc2)c1 [Example 34.13]
Found: 1000 to 10000 nM

Lookup: Lab note: need EC50 for N#Cc1cc(-c2ccncc2)cc2c1CCN2C(=O)[C@H](Cc1ccccc1)NCc1cscn1 [Example 53] on human receptor found in pancreatic islet cells (Homo sapiens), anyone have it?
Found: 100 to 1000 nM

====

Molecular target: human receptor found in pancreatic islet cells (Homo sapiens, UniProt Q7Z601)
Sequence (Q7Z601 1-462): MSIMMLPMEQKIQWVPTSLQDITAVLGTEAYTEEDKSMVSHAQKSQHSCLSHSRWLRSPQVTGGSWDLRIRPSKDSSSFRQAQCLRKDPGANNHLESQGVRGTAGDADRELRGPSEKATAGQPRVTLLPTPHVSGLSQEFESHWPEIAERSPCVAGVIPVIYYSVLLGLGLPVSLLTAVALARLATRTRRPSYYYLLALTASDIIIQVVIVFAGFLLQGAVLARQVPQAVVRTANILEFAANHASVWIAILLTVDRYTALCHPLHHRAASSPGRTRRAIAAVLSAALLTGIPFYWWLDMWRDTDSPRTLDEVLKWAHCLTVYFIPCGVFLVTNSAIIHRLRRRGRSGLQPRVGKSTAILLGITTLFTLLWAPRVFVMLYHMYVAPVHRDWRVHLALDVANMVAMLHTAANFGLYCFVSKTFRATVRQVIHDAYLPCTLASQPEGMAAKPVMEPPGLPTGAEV
Experiment: Activation of intracellular IP3 signaling in transfected cells (Activation Assay)
Conditions: calculated from IP3 concentration measurements in cells transfected with the human receptor
Where a name gives a salt, the structure may show the parent alone.
reported-property: EC50

Lookup: Consider the molecule COc1ncc(-c2ccncc2)cc1NC(=O)[C@H](Cc1ccccc1)NC1(c2ncccn2)CC1 and give its measured EC50.
Found: 50 to 100 nM

Lookup: Would you kindly share the measured EC50 for O=C(Nc1cncc(-c2ccn[nH]2)c1)[C@H](Cc1ccccc1)NCc1cscn1 ?
Found: 100 to 1000 nM

Lookup: For the molecule O=C(Nc1cccc(-c2cn[nH]c2)c1)[C@H](Cc1ccccc1)NCc1cscn1 , what EC50 is on record?
Found: 100 to 1000 nM

Lookup: I am curious: what EC50 value has been reported for C[C@H](N[C@@H](Cc1ccccc1)C(=O)Nc1nnc(-c2ccncc2)s1)c1ccccn1 ?
Found: 100 to 1000 nM

Lookup: For COc1ncc(-c2ccnc(C)c2)cc1NC(=O)[C@H](Cc1ccccc1)NCc1cn(C)cn1 , what is its reported EC50?
Found: 100 to 1000 nM

Others:
Lookup: Would you kindly share the measured EC50 for CNc1cc(-c2nnc(NC(=O)[C@H](Cc3ccc(F)cc3)NCc3cscn3)s2)ccn1 ?
Found: 50 to 100 nM

Lookup: GET /values?readout=EC50&item= Cc1cc(-c2ccc(OCCN(C)C)c(NC(=O)[C@H](Cc3ccccc3)NCc3cscn3)c2)ccn1 [Example 75, trifluoroacetate]
Found: 100 to 1000 nM

Lookup: Could you share which EC50 value was measured for O=C(Nc1cccc(-c2ccncc2)c1)[C@H](Cc1ccccc1)NCc1nccs1 ?
Found: 100 to 1000 nM
